# Target Or Test System: TLR7 (Homo sapiens, UniProt Q9NYK1)
# Sequence (Q9NYK1 27-1049): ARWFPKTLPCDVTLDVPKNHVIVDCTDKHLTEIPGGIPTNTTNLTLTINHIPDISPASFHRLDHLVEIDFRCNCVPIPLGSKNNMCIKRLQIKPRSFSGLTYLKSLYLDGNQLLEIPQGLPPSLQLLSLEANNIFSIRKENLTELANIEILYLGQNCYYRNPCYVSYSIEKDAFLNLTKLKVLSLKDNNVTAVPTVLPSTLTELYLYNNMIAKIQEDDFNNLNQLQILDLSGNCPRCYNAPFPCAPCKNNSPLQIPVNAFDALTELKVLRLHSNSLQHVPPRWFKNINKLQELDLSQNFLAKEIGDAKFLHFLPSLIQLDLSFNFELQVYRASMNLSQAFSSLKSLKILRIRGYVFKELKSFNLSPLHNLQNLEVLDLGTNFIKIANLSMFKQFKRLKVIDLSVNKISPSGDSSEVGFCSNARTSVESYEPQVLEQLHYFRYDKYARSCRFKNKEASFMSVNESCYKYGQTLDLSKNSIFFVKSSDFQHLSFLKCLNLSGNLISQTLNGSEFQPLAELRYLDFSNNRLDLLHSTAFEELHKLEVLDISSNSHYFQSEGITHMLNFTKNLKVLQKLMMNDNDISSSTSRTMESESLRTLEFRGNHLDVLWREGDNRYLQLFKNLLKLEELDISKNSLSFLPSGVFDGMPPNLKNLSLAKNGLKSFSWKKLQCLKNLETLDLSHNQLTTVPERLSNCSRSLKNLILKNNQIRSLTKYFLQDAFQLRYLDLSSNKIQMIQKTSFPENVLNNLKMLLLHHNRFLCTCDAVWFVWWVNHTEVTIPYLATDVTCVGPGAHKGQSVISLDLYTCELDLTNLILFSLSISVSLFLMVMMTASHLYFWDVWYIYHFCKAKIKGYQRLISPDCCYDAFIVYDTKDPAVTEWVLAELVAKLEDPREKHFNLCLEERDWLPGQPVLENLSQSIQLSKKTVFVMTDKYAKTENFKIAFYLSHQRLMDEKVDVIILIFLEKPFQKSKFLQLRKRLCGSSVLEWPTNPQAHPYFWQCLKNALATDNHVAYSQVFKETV
# Assay Protocol: HEK/293 TLR7 Cell Assay
# Measurement Parameters: TLR7/NFKb HEK cells, R848 agonist 10 uM final concentration, Steady-Glo readout; read-out: TLR7 potency
Metric: IC50

Examples with answers:
Compound	IC50
C[C@@H]1CN(c2cnc(C#N)c3ncccc23)C[C@H](C(=O)NC2CCC(N3CCOCC3)CC2)O1 (some centres unmarked) [Example 277]	< 75 nM
C[C@@H]1CN(c2ccc(C#N)c3nccnc23)C[C@H](CNC(=O)[C@H](C)O)O1 (single isomer, unassigned) [Example 341]	> 150 nM
CN1CC[C@@](F)(CNC(=O)[C@H]2CN(c3cnc(C#N)c4ncccc34)C[C@@H](C(F)(F)F)O2)C1 (single isomer, unassigned) [Example 350]	> 150 nM
CC(C(=O)N[C@@H]1C[C@H](C(F)(F)F)CN(c2ccc(C#N)c3nccnc23)C1)N1CCN(C)CC1 (single isomer, unassigned) [Example 98]	< 75 nM
CNS(=O)(=O)CCNC(=O)[C@H]1CN(c2ccc(C#N)c3nccnc23)C[C@@H](C)O1 [Example 255]	< 75 nM

Here is the next item to consider.
Q: // returns reported IC50 for input C[C@H]1C[C@@H](NCC(=O)N2CC(O)C2)CN(c2ccc(C(F)(F)F)c3ncccc23)C1 [Example 51]
Ans: < 75 nM

###

# Target Or Test System: TLR7 (Homo sapiens)
# Assay Protocol: HEK/293 TLR7 Cell Assay
# Measurement Parameters: TLR7/NFKb HEK cells, R848 agonist 10 uM final concentration, Steady-Glo readout; read-out: TLR7 potency
Below, each entry is listed alongside its reported IC50.

Q: // returns reported IC50 for input N#Cc1ccc(N2C[C@@H](C(=O)NC[C@@]3(F)CCNC3)O[C@@H](C(F)(F)F)C2)c2nccnc12 (single isomer, unassigned) [Example 308]
Ans: < 75 nM

Q: // same read-out, input: C[C@H](O)CNC(=O)[C@@H]1CN(c2ccc(C#N)c3nccnc23)C[C@H](C(F)(F)F)O1 (single isomer, unassigned) [Example 287]
Ans: 75 to 150 nM

Q: // same read-out, input: CN1CCC(O)(CC(=O)N[C@@H]2C[C@H](C(F)(F)F)CN(c3ccc(C(F)(F)F)c4nccnc34)C2)CC1 [Example 63]
Ans: < 75 nM

###

# Target Or Test System: TLR7 (Homo sapiens)
# Assay Protocol: HEK/293 TLR7 Cell Assay
# Measurement Parameters: TLR7/NFKb HEK cells, R848 agonist 10 uM final concentration, Steady-Glo readout; read-out: TLR7 potency
pIC50: −log10 of the molar value. Where a name gives a salt, the structure may show the parent alone.
Below, each entry is listed alongside its reported pIC50.

Compound	Metric	Measured Result
C[C@@H]1CN(c2cnc(C#N)c3ncccc23)C[C@H](C(=O)NCC(O)C(F)(F)F)O1 (stereo partly drawn)	pIC50	< 6.82
C[C@H]1C[C@@H](NC(=O)CCN(C)C)CN(c2ccc(C(F)(F)F)c3ncccc23)C1	pIC50	> 7.12
C[C@H]1C[C@@H](NC(=O)CC2(O)CCN(C)CC2)CN(c2ccc(C#N)c3nccnc23)C1 [Example 72, hydrochloride]	pIC50	> 7.12

Q: # value lookup — system TLR7 (Homo sapiens), readout pIC50, item CC(=O)NCCN[C@@H]1C[C@H](C(F)(F)F)CN(c2ccc(C#N)c3ncccc23)C1
Ans: > 7.12

###

Below, each entry is listed alongside its reported pIC50.
# Target Or Test System: TLR7 (Homo sapiens, UniProt Q9NYK1)
# Assay Protocol: HEK/293 TLR7 Cell Assay
# Measurement Parameters: TLR7/NFKb HEK cells, R848 agonist 10 uM final concentration, Steady-Glo readout; read-out: TLR7 potency
pIC50: −log10 of the molar value.

Examples with answers:
Compound	Measured Result
C[C@@H]1CN(c2cnc(C#N)c3ncccc23)C[C@H](C(=O)NC2CCNCC2(F)F)O1 (stereo partly shown)	< 6.82
C[C@@H]1CN(c2ccc(C#N)c3nccnc23)C[C@H](C(=O)NC2CCN(CC3CC3)C2)O1 (stereo partly shown)	> 7.12
C[C@H]1C[C@@H](NC2CS(=O)(=O)C2)CN(c2ccc(C#N)c3nccnc23)C1	< 6.82

Q: // returns reported pIC50 for input CNS(=O)(=O)CCCN[C@@H]1C[C@H](C)CN(c2ccc(C(F)(F)F)c3ncccc23)C1
Ans: > 7.12

Q: // same read-out, input: Cc1ccc(N2C[C@H](CNC(=O)CC3CCN(C)CC3)O[C@H](C)C2)c2cccnc12
Ans: > 7.12

Q: // same read-out, input: CN1CCC(O)(CC(=O)N[C@@H]2C[C@H](C(F)(F)F)CN(c3ccc(C(F)(F)F)c4ncccc34)C2)CC1
Ans: > 7.12

Q: // same read-out, input: CC(C)(O)CNC(=O)[C@@H]1CN(c2ccc(C#N)c3nccnc23)C[C@H](C(F)(F)F)O1 (single isomer, unassigned)
Ans: < 6.82

Q: // same read-out, input: CN(C)CCC(=O)N[C@@H]1C[C@H](C(F)(F)F)CN(c2ccc(C#N)c3ncccc23)C1
Ans: > 7.12

Q: // same read-out, input: Cc1ccc(N2C[C@@H](C)C[C@@H](NC(=O)C(N)C3CC3)C2)c2cccnc12 (stereo partly shown)
Ans: > 7.12

Q: // same read-out, input: C[C@@H]1CN(c2ccc(C#N)c3nccnc23)C[C@H](C(=O)NC2CN(CC(F)(F)F)C2)O1
Ans: > 7.12

###

# Target Or Test System: TLR8 (Homo sapiens, UniProt Q9NR97)
# Assay Protocol: HEK/293 TLR8 Cell Assay
# Measurement Parameters: HEK cells, R848 agonist 30 uM final concentration, Steady-Glo readout; read-out: TLR8 potency
pIC50: −log10 of the molar value.
Below, each entry is listed alongside its reported pIC50.

Examples with answers:
Molecule	pIC50
N#Cc1ncc(N2C[C@@H](C(=O)NC[C@]3(F)CCNC3)O[C@@H](C(F)(F)F)C2)c2cccnc12 (single isomer, unassigned) [Example 319]	> 7.12
C[C@@H]1CN(c2ccc(C#N)c3nccnc23)C[C@H](C(=O)NCCS(C)(=O)=O)O1 [Example 256]	> 7.12
C[C@H]1C[C@@H](n2ccnn2)CN(c2ccc(C(F)(F)F)c3nccnc23)C1 (racemic) [Example 154]	6.82 to 7.12
C[C@H]1C[C@@H](NCC(C)(F)C(=O)O)CN(c2ccc(C#N)c3nccnc23)C1 (stereo partly drawn) [Example 15]	> 7.12
C[C@@H]1CN(c2ccc(C#N)c3nccnc23)C[C@H](CNC(=O)[C@@H](C)O)O1 (single isomer, unassigned) [Example 340]	> 7.12

Q: // returns reported pIC50 for input O=C(CC1(F)CCNCC1)N[C@@H]1C[C@H](C(F)(F)F)CN(c2ccc(C(F)(F)F)c3ncccc23)C1 [Example 117]
Ans: > 7.12

Q: // same read-out, input: COCC(O)CNC(=O)[C@H]1CN(c2ccc(C#N)c3nccnc23)C[C@@H](C)O1 (stereo partly drawn) [Example 252]
Ans: > 7.12

Q: // same read-out, input: C[C@H]1C[C@@H](NC(=O)CCN2CCOCC2)CN(c2ccc(C#N)c3nccnc23)C1 [Example 194]
Ans: > 7.12

Q: // same read-out, input: C[C@@H]1CN(c2cnc(C#N)c3ncccc23)C[C@H](CNCC(O)CF)O1 (stereo partly drawn) [Example 373]
Ans: < 6.82

###

# Target Or Test System: TLR8 (Homo sapiens, UniProt Q9NR97)
# Assay Protocol: HEK/293 TLR8 Cell Assay
# Measurement Parameters: HEK cells, R848 agonist 30 uM final concentration, Steady-Glo readout; read-out: TLR8 potency
Below, each entry is listed alongside its reported IC50.

Examples with answers:
Compound	IC50
C[C@H]1C[C@@H](OCCN2CCN(C)CC2)CN(c2ccc(C#N)c3nccnc23)C1 (racemic) [Example 1]	< 0.075 µM
CN(C)CCNC(=O)N[C@@H]1C[C@H](C(F)(F)F)CN(c2ccc(C(F)(F)F)c3nccnc23)C1 [Example 142]	0.075 to 0.15 µM

Q: // returns reported IC50 for input C[C@@H]1CN(c2ccc(C#N)c3ncncc23)C[C@H](C(=O)NC2CCN(C)C3(CCC3)C2)O1 (stereo partly shown) [Example 347]
Ans: < 0.075 µM

Q: // same read-out, input: C[C@@H]1CN(c2ccc(C#N)c3nccnc23)C[C@H](C(=O)NCCN2CCOCC2)O1 [Example 265]
Ans: < 0.075 µM

###

# Target Or Test System: TLR8 (Homo sapiens)
# Sequence (Q9NR97 27-1041): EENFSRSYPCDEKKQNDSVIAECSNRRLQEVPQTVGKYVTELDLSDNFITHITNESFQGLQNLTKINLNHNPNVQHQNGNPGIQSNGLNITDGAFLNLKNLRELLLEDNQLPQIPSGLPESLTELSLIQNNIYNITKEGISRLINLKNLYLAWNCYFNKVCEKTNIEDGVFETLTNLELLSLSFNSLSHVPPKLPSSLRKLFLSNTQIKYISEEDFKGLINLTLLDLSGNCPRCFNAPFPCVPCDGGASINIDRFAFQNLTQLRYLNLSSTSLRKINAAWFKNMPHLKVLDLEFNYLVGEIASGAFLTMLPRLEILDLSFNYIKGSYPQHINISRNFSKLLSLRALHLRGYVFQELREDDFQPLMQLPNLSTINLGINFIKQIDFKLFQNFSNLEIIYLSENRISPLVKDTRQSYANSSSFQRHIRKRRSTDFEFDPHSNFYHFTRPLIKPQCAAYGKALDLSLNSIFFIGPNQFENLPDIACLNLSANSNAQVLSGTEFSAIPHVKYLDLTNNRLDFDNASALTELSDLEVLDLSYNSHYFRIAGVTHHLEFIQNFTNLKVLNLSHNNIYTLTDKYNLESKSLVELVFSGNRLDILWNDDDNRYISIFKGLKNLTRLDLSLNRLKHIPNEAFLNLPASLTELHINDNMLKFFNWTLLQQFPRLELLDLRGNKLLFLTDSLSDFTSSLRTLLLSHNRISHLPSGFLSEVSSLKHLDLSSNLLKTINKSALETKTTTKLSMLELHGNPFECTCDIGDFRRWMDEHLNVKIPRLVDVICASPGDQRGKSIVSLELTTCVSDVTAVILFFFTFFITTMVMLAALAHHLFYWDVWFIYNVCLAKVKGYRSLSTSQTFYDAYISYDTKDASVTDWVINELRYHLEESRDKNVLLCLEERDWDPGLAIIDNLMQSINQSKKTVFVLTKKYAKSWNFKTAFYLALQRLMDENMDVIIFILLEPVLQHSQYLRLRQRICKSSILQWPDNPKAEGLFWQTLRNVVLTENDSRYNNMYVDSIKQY
# Assay Protocol: HEK/293 TLR8 Cell Assay
# Measurement Parameters: HEK cells, R848 agonist 30 uM final concentration, Steady-Glo readout; read-out: TLR8 potency
pIC50: −log10 of the molar value.
Below, each entry is listed alongside its reported pIC50.

Examples with answers:
Compound	pIC50
CC(C)[C@H](O)C(=O)N[C@@H]1C[C@H](C)CN(c2cnc(C#N)c3nccnc23)C1	> 7.12
N#Cc1ccc(N2C[C@@H](C(F)(F)F)O[C@@H](C(=O)N3C[C@@H](N)C4(CC4)C3)C2)c2nccnc12 (single isomer, unassigned)	> 7.12
C[C@@H]1CN(c2ccc(C#N)c3nccnc23)C[C@H](C(=O)NC[C@H]2COCCN2)O1 (single isomer, unassigned)	> 7.12
C[C@@H]1CN(c2ccc(C#N)c3nccnc23)C[C@H](C(=O)N2CC3(C2)CS(=O)(=O)C3)O1	< 6.82

Here is the next item to consider.
Q: # value lookup — system TLR8 (Homo sapiens), readout pIC50, item N#Cc1ccc(N2C[C@H](NC(=O)C3CCCNC3)C[C@H](C(F)(F)F)C2)c2cccnc12 (some centres unmarked)
Ans: 6.82 to 7.12
